- ASSAYED_TARGET: T1, mouse DLL3 on CHO K1-mDLL3 cells (mouse, UniProt O88516 33-490)
- T1 construct: also called mouse DLL3 recombinant cell line
- T1 sequence: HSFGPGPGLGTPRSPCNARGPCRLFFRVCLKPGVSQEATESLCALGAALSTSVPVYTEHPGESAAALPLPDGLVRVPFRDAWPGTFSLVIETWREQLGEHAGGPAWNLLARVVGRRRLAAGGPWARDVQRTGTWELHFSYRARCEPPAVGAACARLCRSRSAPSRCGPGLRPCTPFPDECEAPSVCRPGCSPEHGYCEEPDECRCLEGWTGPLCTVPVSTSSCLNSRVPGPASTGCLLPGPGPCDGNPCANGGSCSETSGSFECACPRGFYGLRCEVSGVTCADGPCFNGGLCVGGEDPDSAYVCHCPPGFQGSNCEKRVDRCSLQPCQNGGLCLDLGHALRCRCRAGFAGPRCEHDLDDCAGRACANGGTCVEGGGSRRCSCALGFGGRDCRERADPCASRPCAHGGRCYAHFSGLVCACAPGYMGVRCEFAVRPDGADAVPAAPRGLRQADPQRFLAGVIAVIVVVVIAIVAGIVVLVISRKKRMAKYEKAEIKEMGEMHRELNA
- EXPERIMENT: FACS, CHO K1-mDLL3 cells
ASSAY_ENDPOINT: binding result

Would you please look over these solved cases?
BINDER: Hab008L3H2a-hFc (Fc fusion, humanized mab008, VL-linker-VH-human IgG1 Fc; also called Hab008 humanized molecule; not shown: linker; human IgG1 Fc fragment) scFv (part 1 of 2): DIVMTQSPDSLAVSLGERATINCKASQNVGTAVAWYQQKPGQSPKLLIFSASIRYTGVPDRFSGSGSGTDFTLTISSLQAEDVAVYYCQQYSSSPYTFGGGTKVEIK scFv (part 2 of 2): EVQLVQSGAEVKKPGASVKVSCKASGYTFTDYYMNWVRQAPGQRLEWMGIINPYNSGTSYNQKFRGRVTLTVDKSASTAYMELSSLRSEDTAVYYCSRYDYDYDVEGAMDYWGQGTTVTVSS
OBSERVED_RESULT: no binding

BINDER: Hab014VL1VH2-hFc (Fc fusion, humanized mab014, VL-linker-VH-human IgG1 Fc; not shown: linker; human IgG1 Fc fragment) scFv (part 1 of 2): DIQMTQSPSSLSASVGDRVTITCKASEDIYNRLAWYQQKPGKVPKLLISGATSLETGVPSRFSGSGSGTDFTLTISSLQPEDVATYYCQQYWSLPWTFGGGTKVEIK scFv (part 2 of 2): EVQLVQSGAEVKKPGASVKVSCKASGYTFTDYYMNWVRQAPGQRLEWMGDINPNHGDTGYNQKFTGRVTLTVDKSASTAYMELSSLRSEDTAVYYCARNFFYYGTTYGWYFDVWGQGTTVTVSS
OBSERVED_RESULT: binds

BINDER: Hab014VL3VH1-hFc (Fc fusion, humanized mab014, VL-linker-VH-human IgG1 Fc; not shown: linker; human IgG1 Fc fragment) scFv (part 1 of 2): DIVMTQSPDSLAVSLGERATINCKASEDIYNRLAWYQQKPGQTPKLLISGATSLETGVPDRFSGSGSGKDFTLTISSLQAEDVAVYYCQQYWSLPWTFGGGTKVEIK scFv (part 2 of 2): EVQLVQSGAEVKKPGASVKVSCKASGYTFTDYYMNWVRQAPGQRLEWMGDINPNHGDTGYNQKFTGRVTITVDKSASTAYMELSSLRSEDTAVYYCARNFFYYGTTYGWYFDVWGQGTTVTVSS
OBSERVED_RESULT: binds

BINDER: Hab008L3H5-hFc (Fc fusion, humanized mab008, VL-linker-VH-human IgG1 Fc; also called Hab008 humanized molecule; not shown: linker; human IgG1 Fc fragment) scFv (part 1 of 2): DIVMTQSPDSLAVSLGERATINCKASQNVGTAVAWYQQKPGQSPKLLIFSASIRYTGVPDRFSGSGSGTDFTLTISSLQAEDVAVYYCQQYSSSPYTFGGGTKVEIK scFv (part 2 of 2): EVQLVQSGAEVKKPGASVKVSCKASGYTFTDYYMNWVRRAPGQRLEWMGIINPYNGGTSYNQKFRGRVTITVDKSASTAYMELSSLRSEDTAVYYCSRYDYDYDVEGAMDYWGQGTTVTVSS
OBSERVED_RESULT: no binding

-- ask What value of binding result has been recorded for this entry: Hab014VL2VH1-hFc (Fc fusion, humanized mab014, VL-linker-VH-human IgG1 Fc; not shown: linker; human IgG1 Fc fragment) scFv (part 1 of 2): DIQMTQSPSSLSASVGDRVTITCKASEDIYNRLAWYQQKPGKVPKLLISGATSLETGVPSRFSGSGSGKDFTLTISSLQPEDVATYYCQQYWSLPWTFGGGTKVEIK scFv (part 2 of 2): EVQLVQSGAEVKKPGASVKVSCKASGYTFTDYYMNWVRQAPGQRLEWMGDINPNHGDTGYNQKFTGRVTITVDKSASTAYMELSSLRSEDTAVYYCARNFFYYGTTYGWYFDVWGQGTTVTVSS
-- reply binds
